# Test system: Benjaminiella poitrasii
# protocol_text: Inhibition of Benjaminiella poitrasii chitin synthase at 4 ug/mL
Kindly supply the reported inhibition values for the records listed here.

For C[C@@H]([C@H](N)C(=O)N[C@H](C(=O)O)[C@H]1O[C@@H](n2ccc(=O)[nH]c2=O)[C@H](O)[C@@H]1O)[C@H](O)c1ccc(O)cn1 [NIKKOMYCIN] the compound record lists inhibition as > 90%

For N#Cc1c(N)nc2c(c1-c1ccccc1Cl)C(=O)CCC2 the compound record lists inhibition as 86%

For CC(=O)N(C(C)=O)c1nc2c(c(-c3ccc(C)cc3)c1C#N)C(=O)CCC2 the compound record lists inhibition as 61%

For N#Cc1c(N)nc2c(c1-c1cccc(N)c1)C(=O)CCC2 the compound record lists inhibition as 76%

For COc1ccc(-c2c(C#N)c(N)nc3c2C(=O)CCC3)cc1 the compound record lists inhibition as 81%

For CC(=O)Nc1nc2c(c(-c3cccc(N4C(=O)C=CC4=O)c3)c1C#N)C(=O)CCC2 the compound record lists inhibition as 91%

For N#Cc1c(N)nc2c(c1-c1cccc(NC(=O)CCN3CCOCC3)c1)C(=O)CCC2 the compound record lists inhibition as 61%

For N#Cc1c(N)nc2c(c1-c1cccc([N+](=O)[O-])c1)C(=O)CCC2 the compound record lists inhibition as 81%

For N#Cc1c(N)nc2c(c1-c1ccccc1)C(=O)CCC2 the compound record lists inhibition as 66%

For N#Cc1c(N)nc2c(c1-c1cccc(N3C(=O)C=CC3=O)c1)C(=O)CCC2 the compound record lists inhibition as 91%

For Cc1ccc(-c2c(C(N)=O)c(N)nc3c2C(=O)CCC3)cc1 the compound record lists inhibition as 66%
